Test: Luminescence Cell-Based Dose Confirmation HTS to Identify Inhibitors of Platelet Dense Granule Release. [Related pubchem assays: 1663 (Primary HTS), 1678 (Summary of Project)]
Type: functional
Activity calls are given as the source filed them.

| compound | EC50 |
| --- | --- |
| NC(=NOCc1ccc([N+](=O)[O-])cc1)c1ccccn1 | 7.95 µM (active) |
| Cc1onc(-c2c(F)cccc2Cl)c1C(=O)NCC1COc2ccccc2O1 (stereo unspecified) | > 112 µM (not active) |
| COc1ccc(/C=C2\CCc3c2nc2ccccc2c3C(=O)O)cc1OC | 73.5 µM (active) |
| COc1ccc(C(=O)Nc2ccccc2C(=O)N/N=C/c2ccc(O)c(OC)c2)cc1 | 0.156 µM (active) |
| CCc1ccccc1N(CC(=O)N/N=C/c1ccc(OC(=O)OC)c(OC)c1)S(C)(=O)=O | 43.7 µM (active) |
| CCOc1cc(CNc2ccc3[nH]c(O)nc3c2)ccc1OCC(=O)NC(C)(C)C | 12 µM (active) |

====

Biological target: Ubiquitin-conjugating enzyme E2 N (Homo sapiens, UniProt P61088)
Sequence (P61088 whole entry): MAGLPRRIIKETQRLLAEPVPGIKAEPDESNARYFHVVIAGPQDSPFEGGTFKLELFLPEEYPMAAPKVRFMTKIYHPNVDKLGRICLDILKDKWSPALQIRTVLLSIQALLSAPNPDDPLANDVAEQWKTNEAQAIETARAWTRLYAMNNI
Assay type: functional
Activity calls are given as the source filed them.
Possible outcomes: active, inactive

| record_smiles | assayed_system | category |
| --- | --- | --- |
| C#CCOCCOCCOCCNc1nc(N2CCOCC2)nc(N2CCN(C(=O)[C@H](CCCCN)n3cc(CN)nn3)CC2)n1 | Ubiquitin-conjugating enzyme E2 N (Homo sapiens, UniProt P61088) | inactive |
| COc1ccnc2c1c(=O)n(Cc1ccc(Cl)cc1)c(=O)n2C | Ubiquitin-conjugating enzyme E2 N (Homo sapiens, UniProt P61088) | active |
| COc1cc(/C=N/NC(=O)CSCc2ccc([N+](=O)[O-])cc2)cc(OC)c1OC | Ubiquitin-conjugating enzyme E2 N (Homo sapiens, UniProt P61088) | active |
| CCOC(=O)c1cccc(Nc2nc(-c3cccnc3)nc3ccccc23)c1 | Ubiquitin-conjugating enzyme E2 N (Homo sapiens, UniProt P61088) | active |

====

Assay: cells
Type: functional, cell-based
Active and inactive are the calls of the source.
EC50 values for the molecules below.

| molecule | EC50 |
| --- | --- |
| COC(=O)Cc1ccc(NC(S)=NC(C)(C)C)cc1 | > 350 µM (not active) |
| COc1cccc(CN2CCC(N(CCc3ccccc3)Cc3ccccc3)CC2)c1OC | > 350 µM (not active) |
| Cc1ccc(-c2cc(C(=O)Nc3cccnc3)[nH]n2)c(O)c1C | 7.01 µM (active) |
| Cn1cccc1-c1cc(C(=O)N/N=C/c2cc(Br)ccc2O)[nH]n1 | > 350 µM (not active) |
| CC1CN=C(/C=C(\O)c2ccc(Br)cc2)C(=O)N1 (stereo not given) | 35.6 µM (active) |

====

Biological target: Corticotropin-releasing factor receptor 2/Corticotropin-releasing factor-binding protein (Homo sapiens, UniProt P24387+Q13324)
Sequence (Q13324 whole entry): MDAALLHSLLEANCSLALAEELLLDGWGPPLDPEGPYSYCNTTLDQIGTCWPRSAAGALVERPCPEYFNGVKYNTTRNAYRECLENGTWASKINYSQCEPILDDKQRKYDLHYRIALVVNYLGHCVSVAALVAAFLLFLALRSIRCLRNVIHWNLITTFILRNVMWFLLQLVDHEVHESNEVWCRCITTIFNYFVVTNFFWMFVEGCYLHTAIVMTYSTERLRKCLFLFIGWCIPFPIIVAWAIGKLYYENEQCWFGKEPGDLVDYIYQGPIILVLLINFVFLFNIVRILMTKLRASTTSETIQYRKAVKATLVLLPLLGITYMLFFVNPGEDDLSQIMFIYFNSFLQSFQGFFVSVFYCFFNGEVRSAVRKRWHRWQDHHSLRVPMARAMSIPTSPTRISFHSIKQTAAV
Sequence (P24387 whole entry): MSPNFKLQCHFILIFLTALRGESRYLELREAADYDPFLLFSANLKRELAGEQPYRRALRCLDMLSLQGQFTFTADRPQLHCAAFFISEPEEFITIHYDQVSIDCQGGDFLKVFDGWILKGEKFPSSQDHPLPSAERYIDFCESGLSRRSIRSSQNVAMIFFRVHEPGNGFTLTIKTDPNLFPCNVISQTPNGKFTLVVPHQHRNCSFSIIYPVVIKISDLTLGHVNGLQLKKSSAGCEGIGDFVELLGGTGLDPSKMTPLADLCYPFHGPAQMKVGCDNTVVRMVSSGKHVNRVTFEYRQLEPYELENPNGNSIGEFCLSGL
Assay: Dose Response confirmation of uHTS hits for small molecule antagonists of the CRF-binding protein and CRF-R2 receptor complex.
Format: functional
Conditions: read-out: IC50_Mean
The source made the active and inactive calls.
Possible outcomes: TRUE = active, FALSE = inactive

| compound | category |
| --- | --- |
| COc1ccccc1N1CCN(C(=O)/C=C/c2cccs2)CC1 | FALSE |
| CC(NC(=O)COC(=O)C12CC3CC(CC(Br)(C3)C1)C2)c1ccccc1 (stereo not given) | FALSE |
| CCCC(=O)N1CCc2cc(-c3nc(N)sc3C)ccc21 | FALSE |
| O=C1CC(Nc2cc(O)nc(O)n2)C(=O)N1c1ccccc1Cl (stereo not given) | FALSE |
| C/C(=N\NC(=O)c1ccc(NS(=O)(=O)c2cccs2)cc1)c1ccccc1 | FALSE |
| COC(=O)C1=C(C)N(Cc2ccccc2)C(=S)N[C@H]1c1cccc(F)c1 | FALSE |
| COc1ccc2c(c1)-c1nc(/N=C/c3ccc(O)cc3)sc1CC2 | FALSE |
| Cc1ccc(C)c(NC(S)=NCCCN2CCOCC2)c1 | FALSE |
| Cc1cccc(CSc2nc3c(c(=O)n2C)SCC3)c1 | TRUE |
| Cc1ccc(-n2nnnc2SCc2nnc(-c3ccccc3Br)o2)cc1 | TRUE |
